molecular target: CRBN-DDB1 (Homo sapiens); experiment: CRBN Fluorescence Polarization Assay with BODIPY-IMid Tracer; format: binding; design: unit not given here; conditions: competition with 30 nM BODIPY-IMiD tracer for 500 nM CRBN-DDB1, 3-fold serial dilution
Sequence (Q96SW2 whole entry): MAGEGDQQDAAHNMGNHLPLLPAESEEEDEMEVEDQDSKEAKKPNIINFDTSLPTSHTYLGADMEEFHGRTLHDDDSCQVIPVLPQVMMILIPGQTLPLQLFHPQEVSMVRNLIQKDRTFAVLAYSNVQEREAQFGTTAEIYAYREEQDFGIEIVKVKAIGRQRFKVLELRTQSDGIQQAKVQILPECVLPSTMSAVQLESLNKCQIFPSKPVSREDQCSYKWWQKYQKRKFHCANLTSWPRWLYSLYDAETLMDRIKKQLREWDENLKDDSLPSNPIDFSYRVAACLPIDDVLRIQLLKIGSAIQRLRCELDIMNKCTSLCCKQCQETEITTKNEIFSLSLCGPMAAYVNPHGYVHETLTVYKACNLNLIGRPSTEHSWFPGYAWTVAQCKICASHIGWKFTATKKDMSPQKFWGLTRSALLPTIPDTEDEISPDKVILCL
Sequence (Q16531 whole entry partner): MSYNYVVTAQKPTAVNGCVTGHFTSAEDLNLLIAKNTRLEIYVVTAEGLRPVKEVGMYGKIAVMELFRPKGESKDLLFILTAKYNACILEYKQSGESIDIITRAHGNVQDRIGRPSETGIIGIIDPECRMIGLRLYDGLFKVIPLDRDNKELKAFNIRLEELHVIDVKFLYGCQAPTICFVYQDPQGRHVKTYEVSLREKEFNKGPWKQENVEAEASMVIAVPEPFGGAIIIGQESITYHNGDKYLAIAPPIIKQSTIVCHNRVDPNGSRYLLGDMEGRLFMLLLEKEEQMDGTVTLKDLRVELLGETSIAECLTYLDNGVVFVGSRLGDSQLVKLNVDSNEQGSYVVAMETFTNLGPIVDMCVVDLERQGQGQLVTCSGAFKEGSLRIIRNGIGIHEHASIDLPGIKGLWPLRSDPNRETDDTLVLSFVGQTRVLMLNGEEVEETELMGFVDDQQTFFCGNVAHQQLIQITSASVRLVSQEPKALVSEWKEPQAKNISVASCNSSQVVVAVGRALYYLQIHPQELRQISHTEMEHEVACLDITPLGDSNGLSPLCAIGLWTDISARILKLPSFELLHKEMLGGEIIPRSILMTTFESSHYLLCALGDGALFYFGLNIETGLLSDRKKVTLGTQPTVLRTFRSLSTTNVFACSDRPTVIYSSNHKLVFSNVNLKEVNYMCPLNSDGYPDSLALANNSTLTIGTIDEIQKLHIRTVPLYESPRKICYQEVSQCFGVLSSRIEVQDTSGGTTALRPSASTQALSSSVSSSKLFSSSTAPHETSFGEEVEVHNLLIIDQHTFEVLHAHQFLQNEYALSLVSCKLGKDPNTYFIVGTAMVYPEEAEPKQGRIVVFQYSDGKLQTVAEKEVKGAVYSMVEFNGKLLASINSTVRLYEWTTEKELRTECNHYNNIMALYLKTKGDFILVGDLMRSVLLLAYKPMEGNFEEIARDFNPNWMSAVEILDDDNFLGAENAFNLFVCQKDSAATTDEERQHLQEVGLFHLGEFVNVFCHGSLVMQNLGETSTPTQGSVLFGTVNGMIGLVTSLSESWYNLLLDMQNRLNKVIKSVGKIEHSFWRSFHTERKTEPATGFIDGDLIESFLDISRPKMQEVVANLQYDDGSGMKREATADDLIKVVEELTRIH
# Lookup of reported Result keyed by entry
Measured endpoint: Result

• O=C1CC[C@H](N2Cc3c(OCc4ccc(Br)cc4)cccc3C2=O)C(=O)N1 = 0.25
• Nc1cccc2c1C(=O)N(C1CCC(=O)NC1=O)C2=O (stereo not drawn) [Pomalidomide, pomalidomide, reference compound] = 1.57
• COC(=O)C1CCCN(Cc2ccc(COc3cccc4c3CN(C3CCC(=O)NC3=O)C4=O)cc2)C1 (stereo not drawn) = 0.06
